ASSAYED_TARGET: E. coli DNA gyrase (Escherichia coli, UniProt P0AES6)
ASSAY_DETAILS: E. coli DNA gyrase ATPase assay
Type: biochemical
ASSAY_READOUT: IC50 (µM)
# number only, unit µM dropped from output

Could you share which IC50 value was measured for CC(=O)c1ccc2cc(S(=O)(=O)Nc3ccc(F)cc3)ccc2c1 ?
3.58

----------
ASSAYED_TARGET: E. coli topoisomerase IV (Escherichia coli, UniProt P20083)
Sequence (P20083 whole entry): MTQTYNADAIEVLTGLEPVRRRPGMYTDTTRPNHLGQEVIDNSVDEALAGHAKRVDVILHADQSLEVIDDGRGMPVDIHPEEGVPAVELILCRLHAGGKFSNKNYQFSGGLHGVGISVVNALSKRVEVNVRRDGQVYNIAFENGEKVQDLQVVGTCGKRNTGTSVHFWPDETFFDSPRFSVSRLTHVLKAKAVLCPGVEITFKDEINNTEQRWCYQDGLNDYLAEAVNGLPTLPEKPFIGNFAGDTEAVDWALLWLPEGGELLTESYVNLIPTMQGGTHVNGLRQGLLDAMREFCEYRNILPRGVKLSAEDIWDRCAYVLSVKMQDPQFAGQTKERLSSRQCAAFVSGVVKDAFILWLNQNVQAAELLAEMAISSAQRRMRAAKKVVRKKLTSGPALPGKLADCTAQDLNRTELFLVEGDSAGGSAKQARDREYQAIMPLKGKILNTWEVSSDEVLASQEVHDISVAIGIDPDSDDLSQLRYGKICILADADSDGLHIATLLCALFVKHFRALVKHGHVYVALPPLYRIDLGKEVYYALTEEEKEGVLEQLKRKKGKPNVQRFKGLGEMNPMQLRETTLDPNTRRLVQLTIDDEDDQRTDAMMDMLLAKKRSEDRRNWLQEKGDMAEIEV
Sequence (P0AFI2 whole entry partner): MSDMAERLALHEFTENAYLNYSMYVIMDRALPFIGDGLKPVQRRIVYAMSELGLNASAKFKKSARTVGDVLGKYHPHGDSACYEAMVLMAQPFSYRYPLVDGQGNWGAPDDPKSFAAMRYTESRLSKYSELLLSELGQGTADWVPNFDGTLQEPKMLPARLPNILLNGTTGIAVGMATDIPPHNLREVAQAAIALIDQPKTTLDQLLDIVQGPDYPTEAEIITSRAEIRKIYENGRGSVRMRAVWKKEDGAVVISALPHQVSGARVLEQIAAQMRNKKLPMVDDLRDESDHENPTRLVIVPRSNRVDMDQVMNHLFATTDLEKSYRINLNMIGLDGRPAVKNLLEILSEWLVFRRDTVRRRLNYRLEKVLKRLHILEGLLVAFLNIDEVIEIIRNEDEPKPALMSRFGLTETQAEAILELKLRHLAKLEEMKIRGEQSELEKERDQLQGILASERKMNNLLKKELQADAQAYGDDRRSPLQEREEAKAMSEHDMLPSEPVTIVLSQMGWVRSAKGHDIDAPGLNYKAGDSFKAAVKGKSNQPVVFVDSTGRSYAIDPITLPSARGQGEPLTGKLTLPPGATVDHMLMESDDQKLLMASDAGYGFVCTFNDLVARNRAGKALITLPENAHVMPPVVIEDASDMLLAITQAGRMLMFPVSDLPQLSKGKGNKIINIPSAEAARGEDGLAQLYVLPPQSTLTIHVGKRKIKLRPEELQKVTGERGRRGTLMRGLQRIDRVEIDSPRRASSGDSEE
ASSAY_DETAILS: E. coli topoisomerase IV ATPase assay
Assay type: biochemical
ASSAY_READOUT: IC50 (µM)
# number only, unit µM dropped from output

Could you share which IC50 value was measured for CC(=O)c1ccc2cc(S(=O)(=O)Nc3ccc(F)cc3)ccc2c1 ?
3.49

----------
Test system: A. flavus isolate
ASSAY_DETAILS: Agar well diffusion test
Assay type: cell-based
TEST_CONTEXT: AWDT
ASSAY_READOUT: Zone of inhibition, inhibition scale

// solved cases for Zone of inhibition, inhibition scale follow
# COMPOUND, Zone of inhibition, inhibition scale
measured = [
    ("CC(=O)c1ccc2cc(S(=O)(=O)Nc3ccccc3C)ccc2c1 [Compound 5f]", "− (0–6 mm (−))"),
    ("CC(=O)c1ccc2cc(S(=O)(=O)NCc3ccccc3)ccc2c1 [Compound 5h]", "+ (7–11 mm (+))"),
    ("CC(=O)c1ccc2cc(S(=O)(=O)Nc3ccc(F)cc3)ccc2c1 [Compound 5b]", "− (0–6 mm (−))"),
    ("CC(=O)c1ccc2cc(S(=O)(=O)Nc3ccccn3)ccc2c1 [Compound 5i]", "− (0–6 mm (−))"),
    ("CC(=O)c1ccc2cc(S(=O)(=O)Nc3ccccc3)ccc2c1 [Compound 5a]", "− (0–6 mm (−))"),
    ("CC(=O)c1ccc2cc(S(=O)(=O)Nc3cccc(Cl)c3)ccc2c1 [Compound 5d]", "− (0–6 mm (−))"),
    ("CC(=O)c1ccc2cc(S(=O)(=O)Nc3ccc(Br)cc3)ccc2c1 [Compound 5e]", "+ (7–11 mm (+))"),
    ("CC(=O)c1ccc2cc(S(=O)(=O)Nc3cccnc3)ccc2c1 [Compound 5j]", "+ (7–11 mm (+))"),
]

Please tell me: Zone of inhibition, inhibition scale of COc1ccc(NS(=O)(=O)c2ccc3cc(C(C)=O)ccc3c2)cc1 [Compound 5g] , system A. flavus isolate?
− (0–6 mm (−))

Please tell me: Zone of inhibition, inhibition scale of CC(=O)c1ccc2cc(S(=O)(=O)Nc3ccccc3Cl)ccc2c1 [Compound 5c] , system A. flavus isolate?
− (0–6 mm (−))

----------
ASSAYED_TARGET: STAT3 (Homo sapiens)
Sequence (P40763 whole entry): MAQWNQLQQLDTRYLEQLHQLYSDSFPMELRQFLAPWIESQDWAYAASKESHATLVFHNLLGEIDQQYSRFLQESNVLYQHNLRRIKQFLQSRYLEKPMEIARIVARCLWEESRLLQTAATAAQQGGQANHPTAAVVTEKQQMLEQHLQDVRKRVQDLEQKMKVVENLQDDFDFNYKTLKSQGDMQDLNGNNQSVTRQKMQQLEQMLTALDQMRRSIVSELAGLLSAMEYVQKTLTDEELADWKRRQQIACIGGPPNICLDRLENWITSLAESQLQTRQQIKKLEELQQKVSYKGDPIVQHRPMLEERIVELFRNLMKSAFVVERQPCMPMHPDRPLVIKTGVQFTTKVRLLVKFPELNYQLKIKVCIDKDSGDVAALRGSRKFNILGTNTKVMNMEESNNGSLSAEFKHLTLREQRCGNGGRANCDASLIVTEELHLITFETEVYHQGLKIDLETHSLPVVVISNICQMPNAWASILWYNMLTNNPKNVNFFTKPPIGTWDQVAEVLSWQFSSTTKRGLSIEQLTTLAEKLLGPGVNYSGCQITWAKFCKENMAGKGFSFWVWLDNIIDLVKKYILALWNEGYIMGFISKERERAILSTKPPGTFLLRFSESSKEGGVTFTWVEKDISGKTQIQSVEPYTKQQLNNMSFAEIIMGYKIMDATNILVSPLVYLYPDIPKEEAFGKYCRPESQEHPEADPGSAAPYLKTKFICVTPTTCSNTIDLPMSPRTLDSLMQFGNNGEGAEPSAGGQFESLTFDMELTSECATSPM
ASSAY_DETAILS: STAT3 tyrosine phosphorylation inhibition
Format: biochemical
TEST_CONTEXT: STAT3 phosphorylation IC50 (μM) (mean ± SD), ELISA, eight dilutions 100-0.03 μM
ASSAY_READOUT: IC50

# SMILES_REPR, IC50
rows = [
    ("CC(=O)c1ccc2cc(S(=O)(=O)Nc3ccccn3)ccc2c1", "8.58 µM"),
    ("CC(=O)c1ccc2cc(S(=O)(=O)Nc3ccccc3)ccc2c1", "7.87 µM"),
    ("CC(=O)c1ccc2cc(S(=O)(=O)Nc3ccc(Br)cc3)ccc2c1", "3.01 µM"),
]

Lab note: next molecule to report on.
Please tell me: IC50 of CC(=O)c1ccc2cc(S(=O)(=O)Nc3ccc(F)cc3)ccc2c1 , system STAT3 (Homo sapiens)?
3.59 µM

----------
IC50 values for the molecules below.
ASSAYED_TARGET: UniProtKB P0AES6
ASSAY_DETAILS: E. coli DNA gyrase supercoiling assay
Type: biochemical
# number only, unit µM dropped from output

# MOLECULE, ASSAYED_TARGET, MEASUREMENT_UNITS, MEAS_VALUE
rows = [
    ("CC(=O)c1ccc2cc(S(=O)(=O)Nc3ccc(F)cc3)ccc2c1", "UniProtKB P0AES6", "µM", 20.6),
]

Lab note: next molecule to report on.
Could you share which IC50 value was measured for CCn1cc(C(=O)O)c(=O)c2cc(F)c(N3CCNCC3)cc21 [Nor, norfloxacin, reference compound] ?
11.1

----------
Test system: BAX
ASSAY_DETAILS: qRT-PCR gene expression in MCF7 cells: BAX
Type: cell-based, human
TEST_CONTEXT: compound at IC50, 48 h, relative to β-Actin, vs control

# SMILES_REPR, BAX gene expression level
data = [
    ("CC(=O)c1ccc2cc(S(=O)(=O)Nc3ccc(F)cc3)ccc2c1", "significant increase"),
    ("CC(=O)c1ccc2cc(S(=O)(=O)Nc3ccccn3)ccc2c1", "significant increase"),
]

----------
System: MCF7 cells
ASSAY_DETAILS: Neutral red uptake cytotoxicity assay, MCF7
Type: cell-based, human
TEST_CONTEXT: SI = IC50 MDCK cell/IC50 MCF7 cell
ASSAY_READOUT: (SI) MCF7, selectivity index

Could you share which (SI) MCF7, selectivity index value was measured for CC(=O)c1ccc2cc(S(=O)(=O)Nc3ccc(Br)cc3)ccc2c1 [Compound 5e] ?
2.22

Could you share which (SI) MCF7, selectivity index value was measured for CC(=O)c1ccc2cc(S(=O)(=O)Nc3ccccn3)ccc2c1 [Compound 5i] ?
2.13

Could you share which (SI) MCF7, selectivity index value was measured for CC(=O)c1ccc2cc(S(=O)(=O)Nc3ccccc3)ccc2c1 [Compound 5a] ?
2.15

Could you share which (SI) MCF7, selectivity index value was measured for COc1cccc2c1C(=O)c1c(O)c3c(c(O)c1C2=O)C[C@@](O)(C(=O)CO)C[C@@H]3O[C@H]1C[C@H](N)[C@H](O)[C@H](C)O1 [Doxorubicin, reference compound] ?
3.07

Could you share which (SI) MCF7, selectivity index value was measured for CC(=O)c1ccc2cc(S(=O)(=O)Nc3ccc(F)cc3)ccc2c1 [Compound 5b] ?
2.33

----------
System: BCL2
ASSAY_DETAILS: qRT-PCR gene expression in MCF7 cells: BCL2
Assay type: cell-based, human
TEST_CONTEXT: compound at IC50, 48 h, relative to β-Actin, vs control

# SMILES_REPR, BCL2 gene expression level
measured = [
    ("CC(=O)c1ccc2cc(S(=O)(=O)Nc3ccccn3)ccc2c1", "significant decrease"),
    ("CC(=O)c1ccc2cc(S(=O)(=O)Nc3ccc(F)cc3)ccc2c1", "significant decrease"),
]

----------
Tested on: A. flavus isolate
ASSAY_DETAILS: Agar well diffusion test
Type: cell-based
TEST_CONTEXT: AWDT, average of triplicate
ASSAY_READOUT: Zone of inhibition (mm)
# number only, unit mm dropped from output

# SMILES_REPR, ASSAYED_TARGET, Zone of inhibition / mm
measured = [
    ("CC(=O)c1ccc2cc(S(=O)(=O)Nc3ccccc3)ccc2c1", "A. flavus isolate", 0),
    ("COc1ccc(NS(=O)(=O)c2ccc3cc(C(C)=O)ccc3c2)cc1", "A. flavus isolate", 0),
    ("CC(=O)c1ccc2cc(S(=O)(=O)Nc3ccc(Br)cc3)ccc2c1", "A. flavus isolate", 11),
    ("CC(=O)c1ccc2cc(S(=O)(=O)Nc3ccc(F)cc3)ccc2c1", "A. flavus isolate", 0),
    ("CC(=O)c1ccc2cc(S(=O)(=O)Nc3cccnc3)ccc2c1", "A. flavus isolate", 7),
]

Could you share which Zone of inhibition value was measured for CC(=O)c1ccc2cc(S(=O)(=O)Nc3ccccn3)ccc2c1 ?
0

Could you share which Zone of inhibition value was measured for CC(=O)c1ccc2cc(S(=O)(=O)Nc3cccc(Cl)c3)ccc2c1 ?
0

Could you share which Zone of inhibition value was measured for CC(=O)c1ccc2cc(S(=O)(=O)NCc3ccccc3)ccc2c1 ?
10

Could you share which Zone of inhibition value was measured for CC(=O)c1ccc2cc(S(=O)(=O)Nc3ccccc3Cl)ccc2c1 ?
0

Could you share which Zone of inhibition value was measured for CC(=O)c1ccc2cc(S(=O)(=O)Nc3ccccc3C)ccc2c1 ?
0

----------
System: C. albicans ATCC 10231
ASSAY_DETAILS: Agar well diffusion test
Format: cell-based
TEST_CONTEXT: AWDT, C. albicans ATCC 10231, average of triplicate
ASSAY_READOUT: Zone of inhibition (mm)
# number only, unit mm dropped from output

// solved cases for Zone of inhibition follow
# SMILES_REPR, ASSAYED_TARGET, MEAS_VALUE
data = [
    ("CC(=O)c1ccc2cc(S(=O)(=O)Nc3ccccn3)ccc2c1", "C. albicans ATCC 10231", 14),
    ("CC(=O)c1ccc2cc(S(=O)(=O)NCc3ccccc3)ccc2c1", "C. albicans ATCC 10231", 7),
    ("CC(=O)c1ccc2cc(S(=O)(=O)Nc3cccnc3)ccc2c1", "C. albicans ATCC 10231", 16),
]

Could you share which Zone of inhibition value was measured for CC(=O)c1ccc2cc(S(=O)(=O)Nc3ccc(Br)cc3)ccc2c1 ?
15

Could you share which Zone of inhibition value was measured for CC(=O)c1ccc2cc(S(=O)(=O)Nc3cccc(Cl)c3)ccc2c1 ?
15

Could you share which Zone of inhibition value was measured for CC(=O)c1ccc2cc(S(=O)(=O)Nc3ccccc3C)ccc2c1 ?
12

Could you share which Zone of inhibition value was measured for CC(=O)c1ccc2cc(S(=O)(=O)Nc3ccccc3Cl)ccc2c1 ?
16

Could you share which Zone of inhibition value was measured for CC(=O)c1ccc2cc(S(=O)(=O)Nc3ccc(F)cc3)ccc2c1 ?
15

Could you share which Zone of inhibition value was measured for COc1ccc(NS(=O)(=O)c2ccc3cc(C(C)=O)ccc3c2)cc1 ?
10

Could you share which Zone of inhibition value was measured for CC(=O)c1ccc2cc(S(=O)(=O)Nc3ccccc3)ccc2c1 ?
12
